TARGET ENTITY: Pyruvate kinase PKLR (Homo sapiens) (UniProt P30613)
Sequence (P30613 whole entry, looked up): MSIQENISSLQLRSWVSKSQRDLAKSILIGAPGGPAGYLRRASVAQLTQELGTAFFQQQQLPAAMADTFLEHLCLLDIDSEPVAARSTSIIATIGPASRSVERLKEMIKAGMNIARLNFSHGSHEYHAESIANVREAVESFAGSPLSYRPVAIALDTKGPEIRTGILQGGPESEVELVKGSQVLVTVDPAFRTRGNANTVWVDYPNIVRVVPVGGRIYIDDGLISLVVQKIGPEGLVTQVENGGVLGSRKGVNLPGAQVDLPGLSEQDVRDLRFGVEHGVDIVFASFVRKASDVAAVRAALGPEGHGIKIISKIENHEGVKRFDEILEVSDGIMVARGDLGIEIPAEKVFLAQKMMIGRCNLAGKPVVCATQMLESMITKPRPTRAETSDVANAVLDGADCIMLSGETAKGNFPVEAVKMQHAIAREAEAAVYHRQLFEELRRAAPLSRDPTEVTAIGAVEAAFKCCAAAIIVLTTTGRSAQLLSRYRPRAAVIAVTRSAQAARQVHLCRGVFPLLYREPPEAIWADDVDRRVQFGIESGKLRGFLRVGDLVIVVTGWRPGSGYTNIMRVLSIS
TEST SUMMARY: Secondary assay for Activators of Human Liver Pyruvate Kinase
CONDITION INFO: purified hPK-L, LDH-coupled NADH fluorescence kinetic; series mostly up to 57.5 µM
Results filed as inconclusive are left out. The source made the active and inactive calls. Calls come from the whole dose curve; as a rule, active = well fitted activation curve with a large enough effect; inconclusive = small, poorly fitted or top-dose-only effect, or effect the other way; inactive = no such curve, though single readings can be large or run the other way.
Can you answer with just one of these options? active, inactive

MOLECULE: O=S(=O)(c1ccc2ccccc2c1)N1CCN(S(=O)(=O)c2c(F)cccc2F)CC1
CLASS LABEL: inactive

MOLECULE: Cc1cc2c(s1)c1cnn(Cc3cccc(Cl)c3)c(=O)c1n2C
CLASS LABEL: inactive

MOLECULE: Cc1cc2c(s1)c1cnn(Cc3c(F)cccc3Cl)c(=O)c1n2C
CLASS LABEL: inactive

Called result for "Cn1c2ccsc2c2cnn(Cc3ccc(F)cc3)c(=O)c21"
active

Consider next the molecule O=S(=O)(NC1CCN(S(=O)(=O)c2c(F)cccc2F)C1)c1ccc2c(c1)OCCO2 (stereo unspecified) in the same way.
inactive

Same again, this time with "Cc1cc2c(s1)c1cnn(Cc3ccccc3F)c(=O)c1n2C"
active

----------
TARGET ENTITY: Pyruvate kinase PKLR (Homo sapiens)
TEST SUMMARY: Secondary assay for Activators of Human Liver Pyruvate Kinase
CONDITION INFO: purified hPK-L, LDH-coupled NADH fluorescence kinetic; series mostly up to 57.5 µM
Records with an inconclusive call do not appear. Activity calls are given as the source filed them. Calls come from the whole dose curve; as a rule, active = well fitted activation curve with a large enough effect; inconclusive = small, poorly fitted or top-dose-only effect, or effect the other way; inactive = no such curve, though single readings can be large or run the other way.
Use one of these outcomes when replying: yes for active, no for inactive

Some solved entries appear below for comparison.
CHEMICAL SMILES: COc1ccc(S(=O)(=O)N2CCN(S(=O)(=O)c3ccc4c(c3)OCCO4)CC2)cc1
TARGET ENTITY: Pyruvate kinase PKLR (Homo sapiens)
CLASS LABEL: no
--
CHEMICAL SMILES: Cn1c2cc(Br)sc2c2cnn(Cc3c(F)cccc3F)c(=O)c21
TARGET ENTITY: Pyruvate kinase PKLR (Homo sapiens)
CLASS LABEL: no
--
CHEMICAL SMILES: O=S(=O)(c1c(F)cccc1F)C1CCN(S(=O)(=O)c2ccc3c(c2)OCCO3)CC1
TARGET ENTITY: Pyruvate kinase PKLR (Homo sapiens)
CLASS LABEL: no

Per the records of this test, what outcome belongs to "O=S(=O)(NCC1CN(S(=O)(=O)c2ccc3c(c2)OCCO3)C1)c1c(F)cccc1F" ?
no

Request: "Cc1cc2c(s1)c1c(C)nn(Cc3ccccc3F)c(=O)c1n2C"
no

Also "O=S(=O)(c1ccc2c(c1)OCCO2)N1CCN(S(=O)(=O)c2cccc[n+]2[O-])CC1" ?
no

Same again, this time with "Cn1c2cc(CO)sc2c2cnn(Cc3ccccc3F)c(=O)c21"
yes

Item: "Cn1c2cc(Br)sc2c2cnn(Cc3ccc(F)cc3F)c(=O)c21"
yes

Another compound to check: "Cn1c2cc(B(O)O)sc2c2cnn(Cc3c(F)cccc3Cl)c(=O)c21"
no

Further, for "Cn1c2cc(Br)sc2c2cnn(Cc3c(F)cccc3Cl)c(=O)c21" ?
yes
